This collection of values is drawn from patent US8802597B2.

- System: barnyardgrass (Echinochloa crus-galli)
- TEST_PROTOCOL: Test B pre/postemergence
- Assay type: in vivo
- REPORTED_CONDITIONS: Postemergence, 500 g ai/ha; scale 0 to 100

MOLECULE	SYSTEM_UNDER_TEST	Plant response rating, Barnyardgrass
CCCCOC(=O)c1nc(C2CC2)nc(N)c1Br	barnyardgrass (Echinochloa crus-galli)	90
COCc1nc(C2CC2)nc(N)c1Br	barnyardgrass (Echinochloa crus-galli)	90
COC(OC)c1nc(C2CC2)nc(N)c1F	barnyardgrass (Echinochloa crus-galli)	30
CCOC(=O)C(Cl)c1nc(C2CC2)nc(N)c1Br (stereo not drawn)	barnyardgrass (Echinochloa crus-galli)	0
COC(=O)Cc1nc(C2CC2)nc(N)c1Br	barnyardgrass (Echinochloa crus-galli)	10
CON=Cc1nc(C2CC2)nc(N)c1Br	barnyardgrass (Echinochloa crus-galli)	20
